Test system: SmLux
Assay: Computationally generated LgLux variants expressed in E. coli, tested in lysates with SmLux and substrate 1c
Type: biochemical
Settings: 50 uM substrate 1c, before SmLux peptide addition
value kind: Baseline Signal (Normalized by expression)
Respond with the number and no other words.

* 5104 (protein) MTPEEIRANVRAFYAALASGDLAAAKALFDPGTTITLWDGTTFTSLEEFLAWFEKQFKASKDAKREIVSLEVEGDTVRVLVRLTYTVDGKEKVVDLLQLLKFV | 180.8

# input for lookup
Prompt: # lookup: Baseline Signal (Normalized by expression) of 5124 (protein) MTPEEIIANVRAFYAALASGDLEAAKALFDPGTTITLWDGTTFTSLEEFLAWFEKQFDASKDAKREIVSIEVEGDTVRVLVRLTYTKDGKEQVVDLLQLLKFV
Response: 187.6
